tested on: NCI-H226 lung; experiment: NCI-60 one-dose screen, 48 h; settings: 10 µM unless noted
Compounds without any hit were thinned out: in the full panel of roughly 83,000, 20% have a hit. Active and inactive are the calls of the source. Rule for the calls: active = growth percent below 10; inactive = the rest.
Tick one outcome: active, inactive

Assay outcome for "COC(=O)c1ccc2nc(-c3cc4ccccc4n3C)n(CCCCOc3cc4c(cc3OC)C(=O)N3CCC[C@H]3C=N4)c2c1" : what was it?
active

Assay outcome for CCN1C(=O)N(CC)C2Nn3c(s/c(=C\c4cccc(F)c4)c3=O)=NC21 (stereo not given) : what was it?
inactive

Assay outcome for "COc1ccc(C(=O)/C=C/c2cccc([N+](=O)[O-])c2)c(OC)c1" : what was it?
inactive

Assay outcome for "Cn1c(=O)c2c(nc3n2CCN(CCc2ccc(OCCN4CCOCC4)cc2)C3)n(C)c1=O" : what was it?
inactive

Assay outcome for "Cc1cc(N/C=c2\sc3ncnn3c2=O)no1" : what was it?
inactive

Assay outcome for "C=C1C(=O)O[C@H]2[C@H]1CC/C(COC(=O)NCc1cc(OC)cc(OC)c1)=C\CC[C@@]1(C)O[C@@H]21" : what was it?
inactive

Assay outcome for "O=C(CNC1CCCCC1)Nc1ccc(-c2nc3ccccc3s2)cc1" : what was it?
inactive

Assay outcome for "O=[N+]([O-])c1cccc(-c2cc(-c3cc(Br)ccc3O)[nH]n2)c1" : what was it?
inactive

Assay outcome for "C=C1C(=O)O[C@H]2[C@H]1CC/C(COC(=O)NCc1ccc(OC)cc1)=C\CC[C@@]1(C)O[C@@H]21" : what was it?
inactive

Assay outcome for CC1Cc2c(N(C)C)ncnc2N(C)c2ccc(O)cc21 (stereo not given) : what was it?
inactive

Assay outcome for "O=S(=O)(NCCNc1nccc(-c2c(-c3ccccc3)nc3sccn23)n1)c1ccc(O)cc1" : what was it?
inactive

Assay outcome for "COc1cc(Cn2c(-c3nonc3N)nc3ccccc32)ccc1C" : what was it?
inactive

Assay outcome for "CN(C)c1ccc(-c2ccc(-c3ccc(C(=N)N)cn3)o2)cc1" : what was it?
inactive

Assay outcome for "COc1ccc(/C=C/C(=O)c2ccc(NC(=O)CN3CCN(c4cc5c(cc4F)c(=O)c(C(=O)O)cn5C4CC4)CC3)cc2)cc1" : what was it?
inactive

Assay outcome for CCN1C(=O)/C(=c2\sc3n(c2=O)C2C(NN=3)N(CC)C(=S)N2CC)c2ccccc21 (stereo not given) : what was it?
inactive

Assay outcome for "Cc1sc2nc(CSc3nnc(-c4ccco4)o3)[nH]c(=O)c2c1C" : what was it?
inactive

Assay outcome for "NCCSC(c1ccccc1)(c1ccccc1)c1ccccc1" : what was it?
inactive

Assay outcome for "COc1ncc(-c2ccc3ncnc(Nc4cccc(Cl)c4)c3c2)cc1NS(=O)(=O)C1CC1" : what was it?
inactive

Assay outcome for "CCCCCCCCCCC/C=C\C[C@H](O)C/C=C1/C(=O)C=C[C@@H]1C/C=C\CCCC(=O)OC" : what was it?
active

Assay outcome for "COc1ccc([N+](=O)[O-])c(/C=C/C(=O)c2ccccn2)c1" : what was it?
inactive

Cited source for all entries: PubChem BioAssay (NCI)
